biological target: T1, H3.1/H4 (human | X. laevis, UniProt P68431 1-136; P62799 1-103); test: fluorescence polarisation; direct: increasing H3/H4 titrated into 10 nM FITC-UBN1(127–148); 20 mM HEPES pH 7.5, 750 mM NaCl, 1 mM TCEP; one site total binding fit; details: both partners purified
T1 construct: also called H3.1(FL)/H4(FL); FL H3.1/H4; not shown: His6, N-terminal, cleaved; copies: 2 + 2
No end group written: not given here. *: point of attachment. FITC = O=C1OC2(c3ccc(O)cc3Oc3cc(O)ccc32)c2ccc(NC(=S)*)cc21
MEASURED ENDPOINT: Kd (µM)
I only need the number, in µM, no unit after it.

Q: Kd lookup needed for {FITC}-DMGYGYDESDSFIDNSEAYDEL (also called FITC-labelled UBN1 peptide; source: synthetic peptide (Genscript)) [FITC-UBN1(127–148)] , thanks.
Result: 17.7
